Answer each item with its documented Kd.
target: human full-length VWF (human, UniProt P04275 764-2813); assay: SPR Biacore T200, antibody captured on Protein A chip, full-length VWF as analyte, single-cycle kinetics

>  <Binder>
1-D5_H1_L0 (antibody, human IgG1, kappa, V domains shown, humanised, human IgG1 kappa) VH: QVQLVESGGGVVQPGRSLRLSCAASGFSLNNYIMGWVRQAPGKGLEWVAIISTGGSTYYASWAKGRFTISRDNSKNTLYLQMNSLRAEDTAVYYCARGGSSAGAGFNIWGQGTLVTVSS VL: DIQMTQSPSSLSASVGDRVTITCQASQSINSGLAWYQQKPGKAPKLLIYKASTLASGVPSRFSGSGSGTDFTLTISSLQPEDFATYYCQSYHYISANGATFGGGTKVEIKT

>  <Kd>
< 1 nM

$$$$

Briefly, Kd measured for 4-H3_H7_L0 rep (antibody, human IgG1, kappa, V domains shown, humanised, human IgG1 kappa) VH: QVQLVESGGGVVQPGRSLRLSCAASGIDLTSNAMNWVRQAPGKGLEWIGGIYGHDTSYYAAWAKGRFTISRDNSKNTVYLQMNSLRAEDTATYFCARGFIYFDIWGQGTLVTVSS VL: DIQMTQSPSSLSASVGDRVTITCLASEDIASGISWYQQKPGKAPKLLIYGASNLESGVPSRFSGSGSGTDFTLTISSLQPEDFATYYCLGGYSFSSNGLTFGGGTKVEIKT : < 1 nM
